System: Pyricularia oryzae Carvara KA301
Assay: whole plant or invertebrate
Format: in vivo
Conditions: 100 ppm, rice blast
The entries below come with measured RCB control value (C.V.) values attached.

In the examples that follow, each entry is paired with its recorded RCB control value (C.V.).
CO/N=C(/C(=O)OC)c1ccccc1CON=C(C)c1ccc(C=C(Cl)Cl)cc1: 100%
CNC(=O)/C(=N/OC)c1ccccc1CON=C(C)c1cccc(C=C(Br)Br)c1: 100%
CNC(=O)/C(=N/OC)c1ccccc1CON=C(C)c1cccc(C=C(Cl)Br)c1: 100%

Given CNC(=O)/C(=N/OC)c1ccccc1COc1c(OC)ccc(C=C(Cl)Cl)c1Br , respond with its RCB control value (C.V.). 100%

Quickly give me recorded RCB control value (C.V.) for CNC(=O)/C(=N/OC)c1ccccc1COc1cccc(C=C(F)Cl)c1 97%

Determine from records and report RCB control value (C.V.) for CNC(=O)/C(=N/OC)c1ccccc1CON=C(C)c1ccc(C=C(F)F)cc1 100%

Given CNC(=O)/C(=N/OC)c1ccccc1CON=C(C)c1ccc(C=C(Cl)Br)cc1 , respond with its RCB control value (C.V.). 100%

Quote RCB control value (C.V.) reported for CNC(=O)/C(=N/OC)c1ccccc1COc1ccc(C=C(F)Cl)cc1 please. 95%

Please supply the value of reported RCB control value (C.V.) for the item CO/N=C(/C(=O)OC)c1ccccc1CON=C(C)c1ccc(C=C(Br)Br)cc1 100%

Numbers sourced from patent US8410302B2.
